B1: Pistol ribozyme (parent)
chain: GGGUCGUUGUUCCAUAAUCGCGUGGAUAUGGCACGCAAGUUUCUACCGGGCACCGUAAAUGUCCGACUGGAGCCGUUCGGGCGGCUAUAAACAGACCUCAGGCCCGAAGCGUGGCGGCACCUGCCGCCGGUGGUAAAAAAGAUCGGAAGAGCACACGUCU

# Variants of: B1
# method: aptazyme ON/OFF ratio, guanine; higher = stronger switching; co-transcriptional cleavage with and without guanine
Each entry below lists one item and its recorded aptazyme ON/OFF ratio value.
Returns: the value as a bare number; no unit string appended.

See these solved cases before continuing.
>>> df
               mutation_annotation              parameter  result
0                    G9U U10G C12G  aptazyme ON/OFF ratio    1.64
1  U7C U8A G9A U10C U11A C12U C13A  aptazyme ON/OFF ratio    1.17
2      U8C G9C U10G U11G C12G C13A  aptazyme ON/OFF ratio    1.13
3           U7A G9A U11C C12U C13A  aptazyme ON/OFF ratio     1.1
4               U8A U10C C12A C13A  aptazyme ON/OFF ratio    1.23

Lab book: aptazyme ON/OFF ratio of U7G U8G U10A C12U C13G noted as 1.18

Lab book: aptazyme ON/OFF ratio of U7C U8G G9A U10A C12U C13A noted as 1.18

Lab book: aptazyme ON/OFF ratio of U8C G9A U11C C12G noted as 1.29

Lab book: aptazyme ON/OFF ratio of U7G U8A G9A C12G C13A noted as 1.13

Lab book: aptazyme ON/OFF ratio of U10G U11C C12U C13A noted as 1.2

Lab book: aptazyme ON/OFF ratio of U7C U8A G9C U11C C12U noted as 1.14

Data provenance is the RNAGym collection of RNA variant scans (doi:10.1021/acssynbio.7b00057).
